Measured melting point of individual entries

Worked cases, melting point given:
CO/C=C(/C(=O)OC)c1ccccc1COc1nc(Nc2ccc(Cl)cc2Cl)nc2c1CCC2; 150 to 151 °C
CO/C=C(/C(=O)OC)c1ccccc1COc1nc(Nc2ccc(F)c(F)c2F)nc2c1CCC2; 118 to 120 °C
CO/C=C(/C(=O)OC)c1ccccc1COc1nc(Nc2ccc(Cl)c(C)c2Cl)nc2c1CCC2; 150 to 151 °C
CO/C=C(/C(=O)OC)c1ccccc1COc1nc(Nc2ccc(F)cc2F)nc2c1CCC2; 106 to 108 °C

Now take the following molecule into account.
For `CO/C=C(/C(=O)OC)c1ccccc1COc1nc(Nc2cccc(Cl)c2Cl)nc2c1CCC2` the molecule record lists melting point as 132 to 134 °C
